- test protocol: yeast growth modulation, basal conditions, primary screen, YJM789 clinical isolate, OD600, 24 h (AID 1089);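 note: growth of clinical yeast isolate S. cerevisiae YJM 789 seeded 1000 cells per well; test concentration not given here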
- run conditions: S. cerevisiae YJM789 growth, higher = more signal, called active from +8 up or from −8 down
readout name: z-score
Give bare numbers.

Recorded results for 3 molecules are shown here.
NCCCC[C@@H]1NC(=O)[C@H]2C[C@@H](C(=O)NCc3ccc(F)cc3)[C@@H](c3ccc(O)cc3)N2C1=O | 0.804
CCN(CC)c1ccc(N2CC=CC34O[C@@H]5C=CCOC(=O)[C@@H]5[C@H]3C(=O)N(CCCO)[C@@H]4C2=O)cc1 (some centres undefined) | -0.6
CC1CC/C=C\[C@H]2OC34C=CCN(c5ccc(Cl)cc5)C(=O)[C@H]3N(CCCO)C(=O)[C@]4(C)C2C(=O)O1 (some centres undefined) | 0.0887

# return z-score for each item in the list
1. CCCC[C@@H]1C[C@H]1[C@@H](NC(=O)c1ccc(C(F)(F)F)cc1)c1ccc(C(=O)OC)cc1
2. C=CC[C@@]12N=C(c3ccc(OCCCO)cc3)O[C@@H]1c1ccccc1N(Cc1ccccc1)C2=O
3. COCCOC(=O)N1C(=O)[C@@]2(c3cc(C#CC4(O)CCCCCC4)ccc31)[C@H](c1ccc(OCCO)cc1)N1[C@H](c3ccccc3)[C@H](c3ccccc3)OC(=O)[C@H]1[C@@H]2C(N)=O

*A*
1: 0.119; 2: -0.965; 3: 1.29

# return z-score for each item in the list
1. CCN(CC)c1ccc(N2CC=CC34O[C@@H]5C=CCOC(=O)[C@@H]5[C@H]3C(=O)N(CCO)[C@@H]4C2=O)cc1 (some centres undefined)
2. COCCOC(=O)N1C(=O)[C@@]2(c3cc(C#CCC(C(=O)OC)C(=O)OC)ccc31)[C@H](c1ccc(OCCO)cc1)N1[C@H](c3ccccc3)[C@H](c3ccccc3)OC(=O)[C@H]1[C@@H]2C(=O)N1CCCCCCC1
3. CCCCCN1CC=CC23O[C@@H]4C=CCOC(=O)[C@@H]4[C@H]2C(=O)N(CCCCCO)[C@@H]3C1=O (some centres undefined)
4. C=CCOC(=O)[C@H]1[C@@H]2C(=O)O[C@@H](c3ccccc3)[C@@H](c3ccccc3)N2[C@@H](c2ccc(OCCOC(=O)[C@H]3C[C@H]4C(=O)NCC(=O)N4[C@H]3c3ccc(O)cc3)cc2)[C@]12C(=O)Nc1ccc(I)cc12

*A*
0.907
1.9
-1.16
0.203

# return z-score for each item in the list
1. O=C1C2C=CC(C(O)C(c3ccccc3)c3ccccc3)N(Nc3ccccc3)C2C(=O)N1c1ccccc1 (centres undefined)
2. CCCC=C(CCC)[C@@H](NS(=O)(=O)c1ccc(Cl)cc1)c1ccccc1

*A*
0.838
0.286

# return z-score for each item in the list
1. COC(=O)c1ccc([C@H](NC(=O)c2ccccc2)[C@]2(C)C[C@H]2C2CCCCC2)cc1
2. [N-]=[N+]=NCc1ccccc1C[C@]1(C(=O)N2CCCCC2)N=C(c2ccc(OCCCO)cc2)O[C@H]1c1ccccc1

*A*
1. 0.696
2. 0.202

====

- test protocol: fission yeast growth modulation, primary screen, strain 972, OD600, 24 h, no modulator (AID 1090);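 note: basal condition with compound alone and no growth modifier present; test concentration not given here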
- run conditions: S. pombe 972 growth, higher = more signal, called active from +8 up or from −8 down
Reported z-score maps to class as: low range = under -0.7, mid range = from -0.7 up to 0.6, high range = 0.6 and over

# example entries with known answers
CCN(CC)c1ccc(N2CC=CC34O[C@@H]5C=CCOC(=O)[C@@H]5[C@H]3C(=O)N(CCCO)[C@@H]4C2=O)cc1 (stereo partly specified) | mid range
CO[C@H]1O[C@H](CO)[C@@H](OC(=O)Nc2ccc(C(F)(F)F)cc2)[C@H](OC(=O)Nc2ccccc2-c2ccccc2)[C@@H]1OC(=O)Nc1ccccc1-c1ccccc1 | high range
C[C@]1(C(=O)NCC(F)(F)F)c2ccccc2C(=O)N(Cc2ccc(OC(F)(F)F)cc2)[C@H]1c1ccc(CO)cc1 | mid range
C=CCC(OC(C)=O)[C@@H]1[C@@H](N(Cc2ccc(-c3ccccc3)cc2)C(=O)c2ccc(C)cc2)c2cc(OCCCO)ccc2N1C(=O)c1ccc2ccccc2c1 (stereo partly specified) | mid range
COC(=O)[C@@]1(Cc2ccc(F)cc2)[C@H]2c3cc(C(=O)N(C)C)n(CCn4cc([N+](=O)[O-])nc4C)c3C[C@H]2CN1C(=O)c1ccccc1 | high range

*Q* Textbook exercise: identify the category of the compound given here, "C=C(CCCC)C(=O)CC[C@H](OC(=O)c1cccnc1)c1ccc(CO)o1" , according to its measured value.
*A* mid range

*Q* Textbook exercise: identify the category of the compound given here, CC=CC(O)C1C=CC2C(=O)N(C)C(=O)C2N1NC(=O)OC(C)(C)C (stereo unspecified) , according to its measured value.
*A* high range

*Q* Textbook exercise: identify the category of the compound given here, "C=C(COC)C(=O)CC[C@@H](OC(=O)c1cccnc1)c1cccc(OCCO)c1" , according to its measured value.
*A* low range

*Q* Textbook exercise: identify the category of the compound given here, "O=c1cccc(-c2ccccc2C(F)(F)F)o1" , according to its measured value.
*A* mid range

*Q* Textbook exercise: identify the category of the compound given here, COc1cc2c(cc1O)C(c1ccc(CN3CCCC3)cc1)N(Cc1ccc([N+](=O)[O-])o1)CC2 (stereo unspecified) , according to its measured value.
*A* low range

*Q* Textbook exercise: identify the category of the compound given here, "C=CCNC(=O)[C@H]1[C@@H]2C(=O)O[C@@H](c3ccccc3)[C@@H](c3ccccc3)N2[C@@H](c2ccccc2OCCO)[C@]12C(=O)N(C(=O)OCCOC)c1ccccc12" , according to its measured value.
*A* high range

*Q* Textbook exercise: identify the category of the compound given here, "CN(C)CCCCNC(=O)[C@H]1C[C@H]2C(=O)N[C@@H](Cc3ccccc3)C(=O)N2[C@H]1c1cccc(OCCO)c1" , according to its measured value.
*A* mid range

Where these numbers come from: PubChem BioAssay
